- Test system: Chordin-like protein 2 (CHRDL2)
- measurementDescription: compounds binding chordin-like 2 – biochemical, small-molecule microarray, 635 nm fluorescence, primary screen (AID 1126);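 note: printed compound slides probed with Chrdl2 protein at 4 µg/mL for 1 h at 4 C; score merges 667 nm emission intensity with signal to noise over three replicate slides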
- testSettings: fluorescence 635 nm, higher = more signal
Decide by composite z-score: equal to or exceeding 0.3 means fulfilled, less means not fulfilled.

Check the entry CCOC(=O)C[C@H]1[C@H](OC(=O)Cc2ccc3c(c2)OCO3)[C@@H](NC(=O)C2CCCCC2)c2cc(OCCCO)ccc2N1C(=O)c1ccccc1 : does composite z-score equal or exceed 0.3?
not fulfilled

Check the entry COc1ccc([Si](C)(C)[C@@H]2[C@@H](CC(=O)N3Cc4ccccc4C[C@H]3CO)O[C@]3(C(=O)N(Cc4ccc(N5C(=O)c6cccc7cccc5c67)cc4)c4ccccc43)[C@H]2C)cc1 : does composite z-score equal or exceed 0.3?
fulfilled

Check the entry COc1cc2c(cc1O)C(c1cccs1)N(Cc1cc3c(cc1Br)OCO3)CC2 (centres undefined) : does composite z-score equal or exceed 0.3?
fulfilled

Check the entry CO[C@H]1O[C@H](CO)[C@@H](OC(=O)Nc2ccc3c(c2)OCO3)[C@H](OC(=O)Nc2ccc3c(c2)OCO3)[C@@H]1OC(=O)Nc1ccc2c(c1)OCO2 : does composite z-score equal or exceed 0.3?
not fulfilled

Check the entry Oc1ccc2cc[n+](Cc3cc4c(cc3Br)OCO4)cc2c1 : does composite z-score equal or exceed 0.3?
not fulfilled

Check the entry N[C@@H](Cc1ccccc1)C(=O)NCc1cn(Cc2ccccc2)nn1 : does composite z-score equal or exceed 0.3?
fulfilled

Check the entry C=CCNC(=O)[C@H]1[C@@H]2C(=O)O[C@@H](c3ccccc3)[C@@H](c3ccccc3)N2[C@@H](c2ccccc2OCCO)[C@]12C(=O)N(C(=O)OCCOC)c1ccc(C#CC3(O)CCCCCC3)cc12 : does composite z-score equal or exceed 0.3?
not fulfilled

Check the entry CCCCC(O)C1C=CC2C(=O)N(C)C(=O)C2N1N(c1ccccc1)c1ccccc1 (centres undefined) : does composite z-score equal or exceed 0.3?
not fulfilled

Check the entry CCCCN1CC=CC23O[C@@H]4/C=C\CCCOC(=O)C4[C@H]2C(=O)N(CCO)[C@@H]3C1=O (some centres undefined) : does composite z-score equal or exceed 0.3?
not fulfilled

Check the entry COc1ccc(CCNC(=O)[C@@H]2c3ccccc3C(=O)N(C3CCCCC3)[C@H]2c2ccc(CO)cc2)cc1 : does composite z-score equal or exceed 0.3?
not fulfilled

Check the entry C=CCNC(=O)[C@@H]1[C@H]2C(=O)O[C@H](c3ccccc3)[C@H](c3ccccc3)N2[C@H](c2ccccc2OCCO)[C@@]12C(=O)N(C(=O)OCCOC)c1ccc(C#CC3(O)CCCCCC3)cc12 : does composite z-score equal or exceed 0.3?
fulfilled

Check the entry C=CC[C@@]1(C(=O)NCCCOC)N=C(c2ccc(OCCCO)cc2)O[C@@H]1c1ccccc1 : does composite z-score equal or exceed 0.3?
not fulfilled

Check the entry COCCOC(=O)N1C(=O)[C@@]2(c3cc(C#CCCO)ccc31)[C@H](c1ccc(OCCO)cc1)N1[C@H](c3ccccc3)[C@H](c3ccccc3)OC(=O)[C@H]1[C@@H]2C(=O)Nc1nc2ccccc2s1 : does composite z-score equal or exceed 0.3?
not fulfilled

Check the entry C=CCNC(=O)[C@@H]1[C@H]2C(=O)O[C@H](c3ccccc3)[C@H](c3ccccc3)N2[C@H](c2ccc(O)cc2)[C@@]12C(=O)N(C(=O)OCCOC)c1ccc(C#CC3=CCCCC3)cc12 : does composite z-score equal or exceed 0.3?
fulfilled

Reference source for all entries: PubChem BioAssay
